The measurements presented in this section are drawn from a melting point compilation (Tetko et al.; mined from patent text by program, amines drawn as free bases though some values may be those of a salt).

So I've got a bunch of molecules here, and I need their melting point values.

>  <molecule>
CC1CC(c2ncc3nccc-3[nH]2)C(C)C(c2ccccc2)N1 (stereo unspecified)

>  <melting point>
131 to 132 °C

$$$$
>  <molecule>
CC(C)(C)c1cc(C(C)(CC(=O)O)c2ccc(O)c(C(C)(C)C)c2)ccc1O

>  <melting point>
156 °C

$$$$
>  <molecule>
Cc1c(SCCN2CCCCC2)ccnc1CSc1nc2ccccc2[nH]1

>  <melting point>
138 to 140 °C

$$$$

For each of the items listed, what is its melting point?
1. C=C1c2c(C)cccc2NC(=O)N1CC(=O)OCC
2. Cc1ccc(-c2ccc(C#N)cc2)cc1
3. CCCC(Cc1ccc(Cl)cc1)C1(S(=O)(=O)c2ccc(OC)cc2)SC(=O)NC1=O (stereo unspecified)
4. Cc1cc(O)ccc1-c1nc2cc(O)cc(Br)c2o1
5. CCOC(=O)c1cn(-c2ccccc2)nc1OCc1oc2cc(OCc3nc(-c4ccccc4)oc3C)ccc2c1-c1ccccc1

1: 151 to 154 °C; 2: 107 to 109 °C; 3: 172 to 174 °C; 4: 120 to 135 °C; 5: 143 to 144 °C
